# Protocol Details: Antioxidant activity assessed as DPPH radical scavenging activity after 30 mins by spectrophotometry
# Assay type: physicochemical
Please provide measured EC50 for the entries that follow.

Problem: What value of measured EC50 is listed for `O=C1c2c(O)cc(O)cc2O[C@@H](c2cccc(O)c2O)[C@@H]1O` ?
Solution: 13.2 µM

Problem: What value of measured EC50 is listed for COc1ccc(C2Oc3cc(O)cc(O)c3C(=O)C2O)cc1OC (racemic) ?
Solution: > 100 µM

Problem: What value of measured EC50 is listed for `O=C1c2c(O)cc(O)cc2O[C@@H](c2ccccc2)[C@@H]1O` ?
Solution: > 100 µM

Problem: What value of measured EC50 is listed for COc1ccccc1C1Oc2cc(O)cc(O)c2C(=O)C1O (racemic) ?
Solution: > 100 µM

Problem: What value of measured EC50 is listed for `COc1cc(OC)cc([C@@H]2Oc3cc(O)cc(O)c3C(=O)[C@H]2O)c1` ?
Solution: > 100 µM

Problem: What value of measured EC50 is listed for `COc1cc(OC)cc([C@H]2Oc3cc(O)cc(O)c3C(=O)[C@@H]2O)c1` ?
Solution: > 100 µM

Problem: What value of measured EC50 is listed for O=C1c2c(O)cc(O)cc2O[C@H](c2ccc(O)c(O)c2)[C@H]1O [(+)-TAXIFOLIN] ?
Solution: 13.9 µM

Problem: What value of measured EC50 is listed for `COc1cccc([C@@H]2Oc3cc(O)cc(O)c3C(=O)[C@H]2O)c1` ?
Solution: > 100 µM

Problem: What value of measured EC50 is listed for `O=C1c2c(O)cc(O)cc2O[C@H](c2cc(O)ccc2O)[C@H]1O` ?
Solution: 24.5 µM

Problem: What value of measured EC50 is listed for `O=C1c2c(O)cc(O)cc2O[C@@H](c2cccc(O)c2)[C@@H]1O` ?
Solution: > 100 µM

Problem: What value of measured EC50 is listed for `O=C1c2c(O)cc(O)cc2O[C@H](c2ccccc2)[C@H]1O` ?
Solution: > 100 µM

Problem: What value of measured EC50 is listed for `COc1ccc([C@H]2Oc3cc(O)cc(O)c3C(=O)[C@@H]2O)cc1` ?
Solution: > 100 µM

Problem: What value of measured EC50 is listed for `COc1cccc([C@@H]2Oc3cc(O)cc(O)c3C(=O)[C@H]2O)c1OC` ?
Solution: > 100 µM

Problem: What value of measured EC50 is listed for `COc1cccc([C@H]2Oc3cc(O)cc(O)c3C(=O)[C@@H]2O)c1OC` ?
Solution: > 100 µM

Problem: What value of measured EC50 is listed for `O=C1c2c(O)cc(O)cc2O[C@@H](c2ccc(O)cc2)[C@@H]1O` ?
Solution: > 100 µM

From: ChEMBL document CHEMBL3632598
